This collection of values is drawn from the nanobody polyreactivity screen of Harvey et al. (2022).

# PROTOCOL_DETAILS: yeast display, Sf9 membrane polyspecificity reagent, FACS + sequencing; frameworks hold sequencing errors
READOUT_LABEL: polyreactivity (PSR sort gate)

Would you please look over these solved cases?
1) QVQLVESGGGLVQAGGSLRLSCAASGRIFYYNVMGWYRQAPGKERELVAAITWSGGSTYYADSVKGRFTISRDNAKNTVYLQMNSLKPEDTAVYYCAAKFSKWTLKKYYYWGQGTQVTVSS : high polyreactivity
2) QVQLVESGGGLVQAGGSLRLSCAAYGSTVSSNAMGWYRQAPGKERELVAGISSSDVGTYYADSVKGRFTISRDYANNTVYLEMNSLKPDDTAVYYCNADHTGQFPSKLFPLGDNYWGQGTQVTVSS : low polyreactivity
3) QVQLVDSGGGLVQAGGSLRLSCAASGITFGNYAMGWYRQAPGKERELVASISWNVGSTYYADSVKGRFTISRDNAKNTVYLQMNSLKPEDTAVYYCARGYDRPRVATFHRFDYWGQGTQVTVSS : low polyreactivity
4) QVQLVASAAGLVQAVGSLRLSCAASASTIGYYAMGWSRQAPGKERELVAAISWSGGSTYYADSVKGRFTISRDNAKNTVYLQMNSLKPEDTAVYFCAADTYPDYYLVEYYYWGQGTQVTVSS : low polyreactivity

Note: attention shifts to another entry.
Give its polyreactivity (PSR sort gate) value. Item: QVQLVESGGGLVQAGGSLRLSCAASGRTFGVYAMGWYRQAPGKERELVARIRYSGGTTRYADSVKGRFTISRDNAKNTVYLQMNSLKPEDTAVYYCAATNWWGTEYDYWGQGTQVTVSS
high polyreactivity

====

# PROTOCOL_DETAILS: yeast display, Sf9 membrane polyspecificity reagent, FACS + sequencing; frameworks hold sequencing errors
READOUT_LABEL: polyreactivity (PSR sort gate)

1. QVQLVESGGGLVQAGGSLRLRCAASGNIFDDNAMGWYRQAPGKERELVAALTWTGGSTYYADSVKGRFTISRDNAKNTVYLQMNSLKAEYTAVYNCADYDYWGQGTQVTVSS : low polyreactivity
2. QVQLVESGGGLDQAGGSLRLSCAASGITFGFNAMGWYRQAPGIERELVAAITYRGGSTYYADSVKGRFTISGDNAKNTVYLQMNSLKPEDTAVYYCAADIGRHTDNYDPRYDYWGQGTQVTVSS : low polyreactivity
3. QVQLVESGGGLVQAGGSLRLSCAASGGTFGRYTMGWYRQAPGKERELVATITIGGGTNYADSVKGRFTISRDNAKNTVYLQMNSLKPEDTAVYYCARAWRWRCRYYEYGYWGQGTQVTVSS : high polyreactivity
4. KVQLVESGGGLVQAGGSLRLSCAASGSIIGGYAMGWYRQAPGKVRELVAAINRSGGRTYYADSVKGRFTFSRDNAKNTVYLQMNSLKPEDTAVYYCAADNFRGKYDYLGQGTQVTVSS : high polyreactivity
5. QVQLVETRGGLVQAGGTLRLSFAASGSTFSYYTMGWYRHAPGTERELVGSIDSSGGSTYYADSVKGRFTISRDNAQNTVYLQMNSLKPEDTAVYYCATGDEWGYDYWGQGTQVTVSS : low polyreactivity

Give its polyreactivity (PSR sort gate) value. Item: QVQLVESGGGLVQAGGSLRLSCDASGRTSVIYAMGWYRQAPGKERELVASIRRGGSTSYADSVKGRFTISRDNAKNTVYLQMNSLKPEDTAVYYCASTFKSGMDYWGQGTQVTVSS
high polyreactivity

Give its polyreactivity (PSR sort gate) value. Item: QVQLVESGGGLVQAGGSRRLSCAASGIIFAYYAMGWYRQAPGKERELVASISSTGGSTYYADSVKGRFTISRDNAKNTVYLQMNSLKPEDTAVYYCAVDGLPPKDALHLYYYWGQVTQVTVSS
low polyreactivity

Give its polyreactivity (PSR sort gate) value. Item: QVQLVESGGGLVQAGGSLRLSCAASGNTIGKYAMGWYRQAPGKETELVATITRRGGSTYYADSVKGRFTISRDNAKNTVYLQMNSLKPEDTAVYYCNRAVTYGTYDYWGQGTQVTVSS
high polyreactivity

Give its polyreactivity (PSR sort gate) value. Item: QVQLVESGGGLVQAGGSLRLSCAATGRIFGGYPMGWYRQAPGKERELVAVISGRGGSTYYADSVKGRFTISRDNAKNTVYLQMNSLIPEDTAVYYCAAVGYYAWTFGYDYWGQGTQVTVSS
high polyreactivity

Give its polyreactivity (PSR sort gate) value. Item: QVQLVESGGGLVQAGGSLRLSCAASGRIFRWYAMGWYRQAPGKERELVAAISWSGGRTYYADSVKGRFTISRDNAKNTVYFQMNSLKPEDTAVYYCAAEGAIPRYYIGGVDYWGQGTQVTVSS
high polyreactivity

Give its polyreactivity (PSR sort gate) value. Item: QVQLVESGGGLVQAGGSLRLSCAASGLTFYTYAMGWYIQAPGTERELVAAISSGGSTNYADSVKGRFTISRDNAKNTVYLQMNSLKPEDTAVYYCAADPSYYTYFSFDLSESDYWGQGTQVTVSS
low polyreactivity

Give its polyreactivity (PSR sort gate) value. Item: QVQLVESGGGLVQAGGSLRLSCAASGSTFYYYTMGWYRQAPGKERELVAAITYSGGSTRYADSVKGRFTISRDNAKNTVYLQMNSLKPEDTAVYYCAAGYYWSSFAFRDMDYWGQGTQVTVSS
high polyreactivity

Give its polyreactivity (PSR sort gate) value. Item: QVQLVESGGGLVQAGGSLRLSCAASGRIFSYYAMGWYRQAPGKERELVAAISKGGTSTYYADSVKGRFTISRDNSKNTVYLQMNRLKPEDTAVYYCAAARPKPVDYLGQGTQVTVSS
high polyreactivity
